Read-out: Interleukin-8 (IL8), CXCL8 (gene 3576)
assay-summary: BSK_MyoF_IL8: BioMAP Diversity Plus: MyoF Assay for Interleukin-8 (IL8) Biomarker Activity (AID 2284261)
measurement-setup: primary human lung fibroblasts
Calls of active or inactive are those of the source. Rule for the calls: active = hit-call score of the fitted dose curve at least 0.9, where 1 is the maximum; inactive = score below 0.9.
Please state which outcome applies, choosing from active, inactive

Illustrative cases are given below, each with its answer.
>>> qualitative_label("O=C1c2ccccc2C(=O)c2c(O)ccc(O)c21")
"inactive"
>>> qualitative_label("CCCCCC(C=O)=Cc1ccccc1")
"inactive"

Please examine the following record next.
Dear all, I need the recorded test outcome for CCC(C)c1cc([N+](=O)[O-])cc([N+](=O)[O-])c1OC(=O)OC(C)C (stereo unspecified) , thank you. active

All figures here come from PubChem BioAssay (EPA / NIEHS).
